Target: Abl(h) (Homo sapiens, UniProt P00519)
Sequence (P00519 whole entry): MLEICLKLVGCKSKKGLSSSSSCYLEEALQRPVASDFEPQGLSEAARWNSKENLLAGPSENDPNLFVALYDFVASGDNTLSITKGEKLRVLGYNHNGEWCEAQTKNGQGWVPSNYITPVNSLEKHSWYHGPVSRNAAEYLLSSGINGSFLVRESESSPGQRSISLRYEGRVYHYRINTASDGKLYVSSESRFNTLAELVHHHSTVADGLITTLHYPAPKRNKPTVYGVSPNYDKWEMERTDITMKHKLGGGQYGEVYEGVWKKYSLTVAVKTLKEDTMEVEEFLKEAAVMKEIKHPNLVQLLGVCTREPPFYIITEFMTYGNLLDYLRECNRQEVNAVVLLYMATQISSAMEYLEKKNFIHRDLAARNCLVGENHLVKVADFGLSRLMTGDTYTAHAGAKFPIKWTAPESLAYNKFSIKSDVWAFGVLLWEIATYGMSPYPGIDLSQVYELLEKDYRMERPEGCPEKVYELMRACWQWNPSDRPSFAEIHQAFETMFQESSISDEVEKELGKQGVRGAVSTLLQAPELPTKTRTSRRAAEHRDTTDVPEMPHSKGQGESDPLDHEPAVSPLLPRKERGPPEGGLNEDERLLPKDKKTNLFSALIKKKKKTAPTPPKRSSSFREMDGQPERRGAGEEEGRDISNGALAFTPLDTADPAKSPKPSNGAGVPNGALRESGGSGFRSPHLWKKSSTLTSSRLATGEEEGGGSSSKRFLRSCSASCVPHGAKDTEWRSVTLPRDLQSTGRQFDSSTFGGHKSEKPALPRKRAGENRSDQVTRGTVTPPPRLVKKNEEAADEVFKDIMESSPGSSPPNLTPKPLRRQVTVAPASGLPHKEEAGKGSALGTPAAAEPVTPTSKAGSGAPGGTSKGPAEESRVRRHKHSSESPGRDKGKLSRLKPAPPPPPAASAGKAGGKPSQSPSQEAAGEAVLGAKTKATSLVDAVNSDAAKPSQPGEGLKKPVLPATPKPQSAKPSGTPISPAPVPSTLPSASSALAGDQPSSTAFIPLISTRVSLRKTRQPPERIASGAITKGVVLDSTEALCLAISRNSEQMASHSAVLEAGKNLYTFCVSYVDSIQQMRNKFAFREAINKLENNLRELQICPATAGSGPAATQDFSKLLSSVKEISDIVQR
Assay: KinaseProfiler kinase assay
Type: biochemical
The compounds listed here are annotated with their inhibition at 1 µM.
Report only the number, with the unit % understood.

C/C=C/c1cc(Nc2cc(N3CCNCC3)nc(Oc3ccc4[nH]c(C)cc4c3F)n2)n[nH]1 :: 107
C/C=C/c1cc(Nc2cc(N3CCN(CCF)CC3)nc(Oc3ccc4[nH]c(C)cc4c3F)n2)n[nH]1 :: 111
C/C=C/c1cc(Nc2cc(N3CCC(OC)CC3)nc(Oc3cc(F)c4[nH]c(C)cc4c3F)n2)n[nH]1 :: 110
Cc1cc2c(F)c(Oc3nc(Nc4cc(C5CC5)[nH]n4)cc(N4CCN(CCF)CC4)n3)ccc2[nH]1 :: 107

inhibition at 1 µM for Cc1cc2c(F)c(Oc3nc(Nc4cc(C5CC5)[nH]n4)cc(N4CCN(CCO)CC4)n3)ccc2[nH]1 is 112

Just so you know, measured inhibition at 1 µM for COC1CCN(c2cc(Nc3cc(C4CC4)[nH]n3)nc(Oc3ccc4[nH]c(C)cc4c3F)n2)C1 (stereo not shown) came out at 103

Query Cc1cc(Nc2cc(N3CCN(CCO)CC3)nc(Oc3cc(F)c4[nH]c(C)cc4c3F)n2)n[nH]1 yields inhibition at 1 µM of 112

* * *

Molecular target: KDR(h) (Homo sapiens)
Sequence (P35968 20-1356): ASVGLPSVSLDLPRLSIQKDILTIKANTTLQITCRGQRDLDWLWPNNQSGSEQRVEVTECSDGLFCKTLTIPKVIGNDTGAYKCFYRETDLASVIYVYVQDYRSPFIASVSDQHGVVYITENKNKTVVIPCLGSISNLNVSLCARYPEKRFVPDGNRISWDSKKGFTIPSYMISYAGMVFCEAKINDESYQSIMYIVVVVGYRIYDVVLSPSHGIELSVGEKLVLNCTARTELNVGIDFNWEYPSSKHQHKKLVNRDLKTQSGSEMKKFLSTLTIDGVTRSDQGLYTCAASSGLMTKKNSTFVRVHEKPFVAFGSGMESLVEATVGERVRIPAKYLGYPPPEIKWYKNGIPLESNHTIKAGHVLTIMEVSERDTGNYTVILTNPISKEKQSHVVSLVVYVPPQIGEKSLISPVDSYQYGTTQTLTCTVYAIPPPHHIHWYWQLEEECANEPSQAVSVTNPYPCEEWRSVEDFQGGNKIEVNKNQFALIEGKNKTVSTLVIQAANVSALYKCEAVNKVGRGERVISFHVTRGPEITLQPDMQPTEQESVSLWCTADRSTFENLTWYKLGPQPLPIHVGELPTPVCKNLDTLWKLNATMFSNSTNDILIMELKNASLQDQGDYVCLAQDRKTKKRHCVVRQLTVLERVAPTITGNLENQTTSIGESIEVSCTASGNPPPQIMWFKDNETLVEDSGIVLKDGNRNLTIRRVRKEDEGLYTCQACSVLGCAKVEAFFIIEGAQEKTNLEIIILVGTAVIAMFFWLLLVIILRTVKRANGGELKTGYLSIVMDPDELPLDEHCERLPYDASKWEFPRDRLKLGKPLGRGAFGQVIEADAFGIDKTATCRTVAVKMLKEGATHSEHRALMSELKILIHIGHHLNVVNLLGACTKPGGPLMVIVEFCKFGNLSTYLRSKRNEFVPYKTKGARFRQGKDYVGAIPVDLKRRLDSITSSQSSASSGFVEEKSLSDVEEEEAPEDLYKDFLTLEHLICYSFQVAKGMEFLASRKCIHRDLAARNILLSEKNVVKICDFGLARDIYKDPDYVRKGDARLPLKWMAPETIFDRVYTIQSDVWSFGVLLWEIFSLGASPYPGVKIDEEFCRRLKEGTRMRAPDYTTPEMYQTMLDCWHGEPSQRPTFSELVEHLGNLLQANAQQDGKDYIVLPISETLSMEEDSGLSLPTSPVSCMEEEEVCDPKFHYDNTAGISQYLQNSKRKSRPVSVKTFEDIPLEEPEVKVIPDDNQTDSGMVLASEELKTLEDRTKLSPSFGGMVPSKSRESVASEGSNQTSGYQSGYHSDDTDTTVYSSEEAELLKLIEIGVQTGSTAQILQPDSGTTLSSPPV
Assay: KinaseProfiler kinase assay
Assay type: biochemical
test_readout: inhibition at 1 µM (%)
Reply numerically in %, unit not repeated.

Worked cases, inhibition at 1 µM given:
C/C=C/c1cc(Nc2cc(N3CCC(O)C3)nc(Oc3cc(F)c4[nH]c(C)cc4c3F)n2)n[nH]1 (centres unmarked) :: 96
C/C=C/c1cc(Nc2cc(N3CCN(CCF)CC3)nc(Oc3ccc4[nH]c(C)cc4c3F)n2)n[nH]1 :: 96
C/C=C/c1cc(Nc2cc(N3CCC(OC)CC3)nc(Oc3ccc4[nH]c(C)cc4c3F)n2)n[nH]1 :: 96
C/C=C/c1cc(Nc2cc(N3CCN(CC)CC3)nc(Oc3cc(F)c4[nH]c(C)cc4c3F)n2)n[nH]1 :: 91
Cc1cc2c(F)c(Oc3nc(Nc4cc(C5CC5)[nH]n4)cc(N4CCN(C)CC4)n3)cc(F)c2[nH]1 :: 96

What the record says about Cc1cc2c(F)c(Oc3nc(Nc4cc(C5CC5)[nH]n4)cc(N4CCOCC4)n3)cc(F)c2[nH]1 : inhibition at 1 µM is 93

Documented inhibition at 1 µM of C/C=C/c1cc(Nc2cc(N3CCOCC3)nc(Oc3cc(F)c4[nH]c(C)cc4c3F)n2)n[nH]1 : 96

// sample C/C=C/c1cc(Nc2cc(N3CCN(S(C)(=O)=O)CC3)nc(Oc3ccc4[nH]c(C)cc4c3F)n2)n[nH]1 , its inhibition at 1 µM was 96

* * *

Target: UniProt:P12931
Sequence (P12931 whole entry): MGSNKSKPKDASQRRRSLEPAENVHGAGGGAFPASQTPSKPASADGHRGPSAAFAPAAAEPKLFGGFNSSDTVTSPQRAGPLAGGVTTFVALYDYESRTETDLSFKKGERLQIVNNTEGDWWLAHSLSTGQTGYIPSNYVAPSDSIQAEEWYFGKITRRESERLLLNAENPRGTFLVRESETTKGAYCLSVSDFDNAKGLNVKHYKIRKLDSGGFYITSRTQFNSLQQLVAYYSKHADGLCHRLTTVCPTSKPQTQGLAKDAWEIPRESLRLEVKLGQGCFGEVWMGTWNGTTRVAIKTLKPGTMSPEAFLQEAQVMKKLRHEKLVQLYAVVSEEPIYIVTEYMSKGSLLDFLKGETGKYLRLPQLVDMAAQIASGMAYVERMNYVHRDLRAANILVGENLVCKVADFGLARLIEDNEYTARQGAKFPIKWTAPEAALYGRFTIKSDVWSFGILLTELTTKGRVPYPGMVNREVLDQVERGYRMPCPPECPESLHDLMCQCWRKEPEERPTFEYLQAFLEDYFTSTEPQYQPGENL
Experiment: KinaseProfiler kinase assay
Format: biochemical
test_readout: inhibition at 1 µM (%)
Dear colleague, please return just the value in %, with no unit written.

Use the examples below as a reference point.
C/C=C/c1cc(Nc2cc(N3CCC(OC)C3)nc(Oc3cc(F)c4[nH]c(C)cc4c3F)n2)n[nH]1 (stereo not drawn) :: 101
Cc1cc2c(F)c(Oc3nc(Nc4cc(C5CC5)[nH]n4)cc(N4CCN(C)CC4)n3)ccc2n1C :: 104
COC1CCN(c2cc(Nc3cc(C4CC4)[nH]n3)nc(Oc3ccc4[nH]c(C)cc4c3F)n2)C1 (stereo not drawn) :: 100
C/C=C/c1cc(Nc2cc(N3CCC(O)C3)nc(Oc3ccc4[nH]c(C)cc4c3F)n2)n[nH]1 (stereo not drawn) :: 100
C/C=C/c1cc(Nc2cc(N3CCN(S(C)(=O)=O)CC3)nc(Oc3ccc4[nH]c(C)cc4c3F)n2)n[nH]1 :: 101
Cc1cc2c(F)c(Oc3nc(Nc4cc(C5CC5)[nH]n4)cc(N4CCC(F)CC4)n3)ccc2[nH]1 :: 100

Consider Cc1cc(Nc2cc(N3CCNCC3)nc(Oc3cc(F)c4[nH]c(C)cc4c3F)n2)n[nH]1 . Its measured inhibition at 1 µM is 98

C/C=C/c1cc(Nc2cc(N3CCC(O)CC3)nc(Oc3cc(F)c4[nH]c(C)cc4c3F)n2)n[nH]1 yielded inhibition at 1 µM of 100
